Values compiled from paper PMC7946963.

- TGT: T1, LC3C (UniProt Q9BXW4 1-126)
- T1 chain: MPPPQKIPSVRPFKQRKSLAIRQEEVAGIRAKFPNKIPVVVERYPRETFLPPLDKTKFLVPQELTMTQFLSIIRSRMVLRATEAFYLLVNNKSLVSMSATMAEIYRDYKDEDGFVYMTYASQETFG
- TEST SUMMARY: FP
Square brackets hold non-standard residues; d marks the D form. Ends that are not written are not given here. pS = N[C@@H](COP(=O)(O)O)C(=O)O
OBSERVATION TYPE: Kd (µM)

>>> reported_result("TASDDSDIVTLEPPK (also: N-terminal FITC only in fluorescence polarisation assay form) [CCPG1 FIR2 synthetic peptide (residues 99–113)]")
39.8
>>> reported_result("TASDD[pS]DIVTLEPPK (also: N-terminal FITC in fluorescence polarisation assay only) [phospho-CCPG1 FIR2 synthetic peptide (p-CCPG1 FIR2)]")
11
